Test: Leishmania major promastigote growth inhibition, primary screen (AID 1063);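 further: promastigotes grown with compound for 44 hours at 28 °C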
Settings: Leishmania major promastigotes, resazurin fluorescence viability; at 10 µM; active compounds read high
The campaign covered roughly 200,000 compounds. About 18,000 (9%) were called active. Many of the other results were omitted from the sample, so actives are more common in it than they were.
Give measured inhibition for each item. Keep answers brief.
Numbers only, in %.

Take a look at these entries with their results.
[
  {
    "molecule": "CC(=O)c1ccc(S(=O)(=O)Nc2ccc(C(=O)NCC(c3ccccc3)N(C)C)cc2)cc1 (stereo unspecified)",
    "inhibition [%]": 0.26
  },
  {
    "molecule": "Cc1ccc(NC(=O)Cn2cccc2C2=NC(c3ccccc3)CO2)c(C)c1 (stereo unspecified)",
    "inhibition [%]": 77.4
  },
  {
    "molecule": "COC(=O)c1ccc(NCC(=O)N2CCCCCC2)cc1",
    "inhibition [%]": -4.15
  }
]

Would you be so kind as to report inhibition for each listed record?
1. O=C(Nc1ccc(S(=O)(=O)N2CCc3ccccc3C2)cc1)c1ccccc1
2. COC(=O)COc1ccc(C2NC(=O)NC(C)=C2C(=O)NCc2ccccc2)cc1OC (stereo unspecified)
3. O=C(O)CCCc1ccccc1
4. O=[N+]([O-])c1cccc(S(=O)(=O)N2CCCCCC2)c1
5. CCOC(=O)Cn1nnnc1C
6. CC(=O)c1c(C)[nH]c(C(=O)OCC(=O)NCCC(C)C)c1C
7. Cc1nnsc1C(=O)N/N=C/c1cccc(C(F)(F)F)c1

Result:
-4.05
-7.17
-5.59
36.7
-3.4
3.75
12.3

Would you be so kind as to report inhibition for each listed record?
1. CCCc1nc(SCC(=O)Nc2ccccc2OC)c2c(=O)n(C)c(=O)n(C)c2n1
2. O=C(Nc1ccc2c(c1)OCCO2)c1ccc(Cl)c(S(=O)(=O)N2CCCCC2)c1

Result:
1. -9.77
2. -0.95

Would you be so kind as to report inhibition for each listed record?
1. Cc1ccc(NC(=O)C2(N3CCC3=O)CCCCC2)cc1
2. CCOC(=O)COc1ccc(Cl)cc1C1NC(=O)NC(C)=C1C(C)=O (stereo unspecified)
3. COc1ccc(C(=O)COC(=O)c2ccc3ccccc3n2)cc1
4. CCOc1ccc(C(O)Cn2c(=N)n(CCN3CCCCC3)c3ccccc32)cc1 (stereo unspecified)

Result:
1: -5.4; 2: 0.61; 3: -7.38; 4: 80.6
